meta.source: PubChem BioAssay (Tox21)

Protocol Notes: qHTS assay to identify small molecule agonists of the AP-1 signaling pathway (AID 1159526); further: on the % scale 0 is the no-effect control and ±100 the full control effect
Condition Summary: ME-180 (cervical carcinoma) AP-1-bla reporter, beta-lactamase FRET ratio, 5 h; series mostly up to 76.8 µM
Inconclusive results are not listed. Activity calls are given as the source filed them. The call rests on the fitted dose curve.

>  <Compound>
C[C@H](N)[C@H](O)c1cccc(O)c1

>  <activation>
inactive

$$$$
>  <Compound>
CCOC(=O)CC(=O)c1ccccc1

>  <activation>
inactive

$$$$
>  <Compound>
CCO[Si](CCCS)(OCC)OCC

>  <activation>
inactive

$$$$
>  <Compound>
O=C1O[C@@H]2[C@@H](O)[C@H](O)O[C@@H]2[C@H]1O

>  <activation>
inactive

$$$$
>  <Compound>
O=C(O)c1cc(Br)c(O)c(Br)c1

>  <activation>
inactive

$$$$
>  <Compound>
CCCCCCCCSCC

>  <activation>
inactive

$$$$
>  <Compound>
CCOc1cc(NC(C)=O)ccc1C(=O)OC

>  <activation>
inactive

$$$$
>  <Compound>
COCCOC(=O)C1=C(C)NC(C)=C(C(=O)OC(C)C)C1c1cccc([N+](=O)[O-])c1 (stereo not drawn)

>  <activation>
inactive

$$$$
>  <Compound>
CC(=O)OC(C)OC(=O)C(C)c1ccc(-c2ccccc2)c(F)c1 (stereo not drawn)

>  <activation>
inactive

$$$$
>  <Compound>
CCN1CCc2nc(N)oc2CC1

>  <activation>
inactive

$$$$
>  <Compound>
FC(F)(F)c1ccccc1-n1ccnc1

>  <activation>
inactive

$$$$
>  <Compound>
Nc1ccc([N+](=O)[O-])c(N)c1

>  <activation>
inactive

$$$$
>  <Compound>
O=C(NCCc1c[nH]c2ccccc12)c1cccnc1

>  <activation>
inactive

$$$$
>  <Compound>
CC(C)c1ccc2cc(C(C)C)ccc2c1

>  <activation>
inactive

$$$$
>  <Compound>
Nc1ncnc(Nc2ccccc2)n1

>  <activation>
inactive

$$$$
>  <Compound>
CCCCC(CC)COCCO (stereo not drawn)

>  <activation>
inactive

$$$$
>  <Compound>
O=C1c2cccc3c2[C@H](CCC3)CN1[C@@H]1CN2CCC1CC2

>  <activation>
inactive

$$$$
>  <Compound>
CC(C)(C)c1cc(CCC(=O)NN)cc(C(C)(C)C)c1O

>  <activation>
inactive

$$$$
>  <Compound>
NNc1nnc(NN)c2ccccc12

>  <activation>
inactive

$$$$
>  <Compound>
O=S(O)(O)=S

>  <activation>
11.4% [at 6.97 µM] (inactive)

$$$$
>  <Compound>
OC[C@H](Cc1cccc(O)c1)[C@H](CO)Cc1cccc(O)c1

>  <activation>
inactive

$$$$
>  <Compound>
CC(CO)c1ccccc1 (stereo not drawn)

>  <activation>
inactive

$$$$
>  <Compound>
CCOC(=O)[C@H](CCc1ccccc1)N[C@@H](C)C(=O)N1C(=O)N(C)C[C@H]1C(=O)O

>  <activation>
inactive

$$$$
>  <Compound>
CN1C(C)(C)CCCC1(C)C

>  <activation>
inactive

$$$$
>  <Compound>
C[C@@H]1O[C@@H](O[C@@H]2[C@@H](O)[C@H](OCCc3ccc(O)c(O)c3)O[C@H](CO[C@@H]3O[C@H](CO)[C@@H](O)[C@H](O)[C@H]3O)[C@H]2OC(=O)/C=C/c2ccc(O)c(O)c2)[C@H](O)[C@H](O)[C@H]1O

>  <activation>
inactive

$$$$
>  <Compound>
Cc1ccc2ccc(Cl)cc2n1

>  <activation>
inactive

$$$$
>  <Compound>
Cc1cc(C(C)(C)C)c(O)c(C)c1CC1=NCCN1

>  <activation>
inactive

$$$$
>  <Compound>
C[Si](C)=O

>  <activation>
-3.55% [at 6.97 µM] (inactive)

$$$$
>  <Compound>
O=C(CS(=O)Cc1ccco1)NC/C=C\COc1cc(CN2CCCCC2)ccn1 (stereo not drawn)

>  <activation>
inactive

$$$$
>  <Compound>
C=C(C)C1CCC(C)(O)CC1 (stereo not drawn)

>  <activation>
inactive

$$$$
>  <Compound>
CCC(C)(CCC(C)C)C(=O)O (stereo not drawn)

>  <activation>
inactive

$$$$
>  <Compound>
NS(=O)(=O)c1ccc(NC(=O)CCC(=O)O)cc1

>  <activation>
inactive

$$$$
>  <Compound>
CCC(CC)CO

>  <activation>
inactive

$$$$
>  <Compound>
CNC(=O)[C@H]1O[C@@H](n2cnc3c(NCc4cc(Cl)ccc4OCc4cc(C)no4)ncnc32)[C@H](O)[C@@H]1N

>  <activation>
inactive

$$$$
>  <Compound>
Cc1cc(NC(=O)C2=C(O)c3ccccc3S(=O)(=O)N2C)no1

>  <activation>
inactive

$$$$
>  <Compound>
Cc1[nH]cnc1-c1ccc(Cl)cc1

>  <activation>
inactive

$$$$
>  <Compound>
Oc1cn2c(n1)Nc1ccc(Cl)c(Cl)c1C2

>  <activation>
0.89% [at 15.8 µM] (inactive)

$$$$
>  <Compound>
CC(C)C(=O)OCCc1ccccc1

>  <activation>
inactive

$$$$
>  <Compound>
CC(C)N(c1ccccc1)C(C)C

>  <activation>
inactive

$$$$
>  <Compound>
CC(C)(C)c1n[nH]c(=S)n(N)c1=O

>  <activation>
inactive

$$$$
>  <Compound>
O=C1CC(c2ccc(Cl)cc2)CC(=O)N1

>  <activation>
inactive

$$$$
>  <Compound>
CC(CC=O)CCCC(C)(C)O (stereo not drawn)

>  <activation>
inactive

$$$$
>  <Compound>
COc1cc2c(cc1OC)[C@@H]1CC(=O)[C@@H](CC(C)C)CN1CC2

>  <activation>
inactive

$$$$
>  <Compound>
CN(C)C(=O)CNC(=O)Cc1ccccc1

>  <activation>
inactive

$$$$
>  <Compound>
O=P(O)(O)OP(=O)(O)O

>  <activation>
inactive

$$$$
>  <Compound>
CCCCCCCCC1CCC(=O)O1 (stereo not drawn)

>  <activation>
inactive

$$$$
>  <Compound>
COc1ccc(Br)c(C)c1

>  <activation>
inactive

$$$$
>  <Compound>
COC(=O)CCc1ccc(OCC(O)CNC(C)C)cc1 (stereo not drawn)

>  <activation>
inactive

$$$$
>  <Compound>
CCCC(=O)C(C)=O

>  <activation>
inactive

$$$$
>  <Compound>
CCn1ccc(NS(=O)(=O)c2ccc(N)cc2)nc1=O

>  <activation>
inactive

$$$$
>  <Compound>
CCCCCOC(=O)CCC

>  <activation>
inactive

$$$$
>  <Compound>
COc1ccc(S(=O)(=O)N2c3ccc(Cl)cc3[C@@](O)(c3ccccc3Cl)[C@H]2C(=O)N2CCC[C@@H]2C(N)=O)cc1OC

>  <activation>
inactive

$$$$
>  <Compound>
CCCC/C=C\CCCCCCCCCC=O

>  <activation>
inactive

$$$$
